// provenance: PubChem BioAssay AID552

Test: growth inhibitors of wild type E. coli, primary screen, strain BW25113 wild type, absorbance readout (AID 552);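 further: bacteria exposed to compound for 20 hours at 37 °C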
Conditions: OD600, at 10 µM, active compounds read high
Hit rate of the full screen: of about 20,000 compounds, about 10 (0.05%) were called active. This excerpt belongs to a sample that is enriched for actives.
value.type: inhibition (%)
Numbers only, in %.

Worked cases, answers included:
1) COC(=O)c1cc(C(=O)OC)cc(N2C(=O)CC(N3CCN(c4ccccc4)CC3)C2=O)c1 (stereo unspecified)
-20
2) Nc1nc(SCCOc2ccccc2)n[nH]1
6.28
3) CC(Nc1nc(N2CCCC2)nc2ccccc12)c1ccccc1 (stereo unspecified)
-5.16
4) Cc1nonc1NC(=O)c1ccccc1Br
-2.2
5) CCc1cc(Br)ccc1NC(=O)C1CCCO1 (stereo unspecified)
-16.5

Query :: Consider the molecule CCOC(=O)C1CCN(C(=O)Cn2cc(C#N)c3ccccc32)CC1 and give its measured inhibition.
Result :: 6.78

----------
Test: growth inhibitors of wild type E. coli, primary screen, strain BW25113 wild type, absorbance readout (AID 552);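 further: bacteria exposed to compound for 20 hours at 37 °C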
Conditions: OD600, at 10 µM, active compounds read high
The whole screen tested about 20,000 compounds, of which about 10 (0.05%) were called active. Shown is part of a subset that was picked to be rich in actives.
value.type: inhibition (%)
Numbers only, in %.

1) CCCn1c(C(O)c2cc(OC)ccc2OC)nc2ccccc21 (stereo unspecified)
-24.6
2) COCCn1c(C)cc(C(=O)CSc2ncnc3sc4c(c23)CCC4)c1C
2.06
3) O=S(=O)(N1CCOCC1)N1CCN(c2ccccc2F)CC1
-11.7

Your task in this section: give inhibition for each listed record.
1. COCCCNC(=O)CSc1nc2ccc(N3CCOCC3)cc2c(=O)n1CCc1ccccc1
2. CC(C(=O)N1CCOCC1)N1c2cccc3cccc(c23)S1(=O)=O (stereo unspecified)
3. O=C(Nc1cccnc1)c1ccc2c(c1)OCO2
4. CN(C)[C@@H]1C(=O)C(C(N)=O)=C(O)[C@@]2(O)C(=O)C3=C(O)c4c(O)ccc(Cl)c4[C@@H](O)[C@H]3C[C@@H]12
5. CCOC(=O)N1CCC(O)(c2cc(C)c(C)cc2C)CC1
6. COc1ccc(OC)c(C(=O)c2ccc(C(=O)O)cc2)c1
7. Cc1cc(C)n(C(=O)c2ccc(S(=O)(=O)N3CCCC3)cc2)n1

Result ::
1.57
-6.66
6.74
43.4
2.31
-4.3
-20.2

Query :: What value of inhibition has been reported for the following molecule? COc1ccc(-c2nc(SCC(=O)N3CCOCC3)n[nH]2)cc1
Result :: -14

----------
Assay: growth inhibitors of wild type E. coli, primary screen, strain BW25113 wild type, absorbance readout (AID 552);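 further: bacteria exposed to compound for 20 hours at 37 °C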
Conditions: OD600, at 10 µM, active compounds read high
About 10 (0.05%) of roughly 20,000 compounds were called active. This excerpt belongs to a sample that is enriched for actives.
value.type: inhibition (%)
One number for each entry, in %.

Take a look at these entries with their results.
1) COc1ccccc1-c1cc(C(=O)NCCCn2ccnc2)no1
-4.16
2) COCCn1c(CN(Cc2ccccc2)Cc2ccccc2)nc2c1c(=O)n(C)c(=O)n2C
12.3
3) CC(=O)NCCc1ccc(S(=O)(=O)N(C)C2CCS(=O)(=O)C2)cc1 (stereo unspecified)
-15.7
4) COC(=O)Nc1c(C)n(C)n(-c2ccccc2)c1=O
-2.62
5) CCOC(=O)CSc1nnc(-c2ccncc2)o1
-0.95
6) Cc1cc(C)cc(N(C(C)C(=O)Nc2c(C)n(C)n(-c3ccccc3)c2=O)S(C)(=O)=O)c1 (stereo unspecified)
-10.4

Dear colleague, could you send me inhibition for each of the items below? Thanks.
1. Cc1cc(C)nc(NC2=NCC(=O)N2c2ccc(Cl)cc2)n1
2. Cc1cc(Cl)ccc1N1C(=O)CC(SCCC(=O)O)C1=O (stereo unspecified)
3. CCOC(=O)c1c(C)nc(-c2ccccc2)nc1NC(=O)C(C)C
4. Cc1cc(C)nc(SCc2nnc(SCC(=O)Nc3ncc(C)s3)n2Cc2ccco2)n1
5. CCCOc1ccc(NC(=O)C2CCCNC2=O)cc1 (stereo unspecified)

Result ::
1. 1.06
2. 0.27
3. -20.2
4. -3.82
5. -30.8
